experiment: self-splicing fitness, log relative to wild type (ln ratio); higher = more splicing; Tetrahymena group I intron in knt gene, E. coli kanamycin selection, DiMSum; sequences stand for … in CUCUCU…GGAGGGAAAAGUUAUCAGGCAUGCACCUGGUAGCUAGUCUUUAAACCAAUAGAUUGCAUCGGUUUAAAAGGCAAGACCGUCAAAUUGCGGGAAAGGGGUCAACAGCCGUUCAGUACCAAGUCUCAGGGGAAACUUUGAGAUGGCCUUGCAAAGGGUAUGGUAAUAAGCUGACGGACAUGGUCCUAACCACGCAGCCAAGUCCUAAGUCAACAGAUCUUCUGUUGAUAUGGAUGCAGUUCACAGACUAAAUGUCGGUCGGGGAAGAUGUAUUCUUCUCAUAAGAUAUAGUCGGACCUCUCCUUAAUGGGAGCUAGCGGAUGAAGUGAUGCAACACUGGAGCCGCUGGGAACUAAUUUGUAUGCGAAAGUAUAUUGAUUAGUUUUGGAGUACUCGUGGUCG; details: 37 °C;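 note: selection with 25 µg/mL kanamycin versus none on LB agar overnight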
measure: self-splicing fitness (ln)
// no unit, no text: just the number

Study these solved cases before continuing.
> print(dat)
          sequence.data                     measure  measured.value
1  CUAGAGCAAUAUUACGCUGU  self-splicing fitness (ln)           -2.69
2  GGUUAGCAAUAUUACGACGC  self-splicing fitness (ln)           0.289
3  AGGCAGCAAUAUUACGAGGC  self-splicing fitness (ln)           -1.67
4  CAGCAGCAAUAUUACGAUUG  self-splicing fitness (ln)          -0.731
5  UGCCAGCAAUAUUACGCGUA  self-splicing fitness (ln)          -0.301

[ask] Need self-splicing fitness (ln) of CCUAAGCAAUAUUACGACAA , thanks.
[reply] -2.54

[ask] Need self-splicing fitness (ln) of AGAAAGCAAUAUUACGACCA , thanks.
[reply] 0.144

[ask] Need self-splicing fitness (ln) of CUAGAGCAAUAUUACGUCCG , thanks.
[reply] -0.0677

[ask] Need self-splicing fitness (ln) of AUACAGCAAUAUUACGGUGA , thanks.
[reply] 0.283

[ask] Need self-splicing fitness (ln) of AGACAGCAAUAUUACGAGAC , thanks.
[reply] -1.59
